In this section we review reported Median dimer activity (recombination on loxP) values for a set of proteins.
- experimental-target: T1, Cre recombinase monomer with Q311R mutation
- T1 chain: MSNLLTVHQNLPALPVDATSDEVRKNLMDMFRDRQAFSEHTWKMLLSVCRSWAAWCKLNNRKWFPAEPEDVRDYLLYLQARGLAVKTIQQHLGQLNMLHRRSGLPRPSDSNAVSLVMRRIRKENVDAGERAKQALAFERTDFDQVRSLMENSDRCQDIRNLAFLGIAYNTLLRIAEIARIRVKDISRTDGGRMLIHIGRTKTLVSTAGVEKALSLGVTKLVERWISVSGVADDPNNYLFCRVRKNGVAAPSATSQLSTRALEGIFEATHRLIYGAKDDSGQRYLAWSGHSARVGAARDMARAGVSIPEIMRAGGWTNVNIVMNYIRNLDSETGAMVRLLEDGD
Respond with the bare value in %.

protein | observed-result
Cre recombinase monomer with R292L mutation (protein) MSNLLTVHQNLPALPVDATSDEVRKNLMDMFRDRQAFSEHTWKMLLSVCRSWAAWCKLNNRKWFPAEPEDVRDYLLYLQARGLAVKTIQQHLGQLNMLHRRSGLPRPSDSNAVSLVMRRIRKENVDAGERAKQALAFERTDFDQVRSLMENSDRCQDIRNLAFLGIAYNTLLRIAEIARIRVKDISRTDGGRMLIHIGRTKTLVSTAGVEKALSLGVTKLVERWISVSGVADDPNNYLFCRVRKNGVAAPSATSQLSTRALEGIFEATHRLIYGAKDDSGQRYLAWSGHSALVGAARDMARAGVSIPEIMQAGGWTNVNIVMNYIRNLDSETGAMVRLLEDGD | 93

Continue with the next protein.
Fill in reported Median dimer activity (recombination on loxP) for this entry: Cre recombinase monomer with R173W mutation (protein) MSNLLTVHQNLPALPVDATSDEVRKNLMDMFRDRQAFSEHTWKMLLSVCRSWAAWCKLNNRKWFPAEPEDVRDYLLYLQARGLAVKTIQQHLGQLNMLHRRSGLPRPSDSNAVSLVMRRIRKENVDAGERAKQALAFERTDFDQVRSLMENSDRCQDIRNLAFLGIAYNTLLWIAEIARIRVKDISRTDGGRMLIHIGRTKTLVSTAGVEKALSLGVTKLVERWISVSGVADDPNNYLFCRVRKNGVAAPSATSQLSTRALEGIFEATHRLIYGAKDDSGQRYLAWSGHSARVGAARDMARAGVSIPEIMQAGGWTNVNIVMNYIRNLDSETGAMVRLLEDGD
95
